- measurementTarget: F Xa (bovine) (Bos taurus, UniProt P00743)
- Construct: purchased Diagnostic Reagents Ltd, Thame, GB
- Sequence (P00743 234-492 limits assumed): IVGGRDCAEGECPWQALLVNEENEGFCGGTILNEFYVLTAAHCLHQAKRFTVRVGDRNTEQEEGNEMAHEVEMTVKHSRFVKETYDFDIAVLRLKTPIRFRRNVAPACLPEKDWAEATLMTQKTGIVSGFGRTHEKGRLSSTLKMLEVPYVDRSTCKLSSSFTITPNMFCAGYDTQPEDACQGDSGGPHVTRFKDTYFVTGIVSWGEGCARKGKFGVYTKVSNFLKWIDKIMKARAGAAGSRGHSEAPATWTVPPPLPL
- Sequence (P00743 41-180 partner limits assumed): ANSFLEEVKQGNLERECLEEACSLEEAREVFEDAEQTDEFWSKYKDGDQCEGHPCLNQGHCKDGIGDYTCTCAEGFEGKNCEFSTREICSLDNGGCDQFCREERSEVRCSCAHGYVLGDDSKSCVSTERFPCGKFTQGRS
- assayDetails: Inhibition of F Xa, Ki by the method of Dixon, chromogenic substrate Moc-D-Nle-Gly-Arg-pNA
- Format: biochemical
- conditionLabel: Example 2; bovine F Xa, 25° C., pH 8.0; average of at least three determinations
Ki values for the compounds below.
Give just the number in nM; leave the unit off.

# annotated cases, reported Ki shown
CC(C)(C)OC[C@@H](NS(=O)(=O)Cc1ccccc1)C(=O)N[C@@H](CCC(=O)O)C(=O)NCc1ccc(C(=N)N)cc1 :: 250
CC(C)(C)OC[C@@H](NS(=O)(=O)Cc1ccccc1)C(=O)NC(CC(=O)O)C(=O)NCc1ccc(C(=N)N)cc1 (stereo partly drawn) :: 1200

For the next question, use this compound.
I looked up "CC(C)(C)OC[C@@H](NS(=O)(=O)Cc1ccccc1)C(=O)NCC(=O)NCc1ccc(C(=N)N)cc1" and its Ki for F Xa (bovine) (Bos taurus, UniProt P00743) was 50
